Where these numbers come from: PubChem BioAssay (NCI)

Recorded measurements of growth, one per entry
# Test system: HCT-116 colon
# assayRemarks: NCI-60 one-dose screen, 48 h (100 = growth as untreated, 0 = no growth, -100 = all killed)
# measurementContext: 10 µM unless noted
The panel holds about 83,000 compounds, 20% with a hit somewhere; the sample as a whole holds those more often.
Just the number please, in %, no unit attached.

In the examples that follow, each entry is paired with its recorded growth.
1) CC(=O)n1c2ccccc2c2ccccc21 :: 102
2) O=C(CCc1nnc2sc(-c3ccc(Cl)cc3Cl)nn12)c1nc2ccccc2[nH]1 :: -84.7

Incoming: Value lookup for growth; key = O=C1C2C3C=CC(O3)C2C(=O)N1Nc1ccccc1 (centres undefined)
Outgoing: 106
